Item-by-item account of AK
# Tested on: SH-SY5Y cells
# experiment description: AK (adenylate kinase) release ToxiLight cytotoxicity assay; further: reference of the scale not given here
# experimental conditions: PKIS2 primary screening
Lab note: jot down the number only; don't add units.

# count of solved cases: 5
molecule | AK
c1ccc(-c2cnc3nccnn23)cc1 [UNC10225020A] | 125.59
CCn1c(-c2c(N)noc2C)nc2cnccc21 [UNC10225095A] | 112.40
CN1C(=O)C(Nc2ccc(Cl)c(C(=O)O)c2)=C(c2ccc(Cl)cc2)C1=O [UNC10225406A] | 75.31
Cl.Cl.NC(CNC(=O)c1cc(Br)c(-c2ccnc3[nH]ccc23)s1)c1ccccc1 (stereo not drawn) [UNC10225176A] | 110.45
Cl.Cl.NC[C@H](CC1CCCCC1)NC(=O)c1cc(Br)c(-c2ccnc3[nH]ccc23)s1 [UNC10225276A] | 108.11

Quick note, AK for CSc1cccc2c(-c3ccncn3)c(-c3ccc(F)cc3)nn12 [UNC10225437A] landed at 100.64

# AK of Nc1nc(-c2cccnc2)c(-c2ccnc3ccccc23)s1 [UNC10225309A] = 67.30

The value of AK measured for the molecule CC(C)(C)n1cnc2c(N)ncnc21 [UNC10225362A] turned out to be 102.90

Every entry's value here was drawn from paper PMC9851200.
